Sourced from patent US20260130907A1

# target.entity: B cell lymphoma 6 (BCL6) (Homo sapiens, UniProt P41182)
# Construct: Endogenous B cell lymphoma 6 (BCL6) was tagged with the 11-amino acid Small BiT (SmBiT); endogenous in cells; host or cells: SU-DHL-4 (CRISPR/Cas9 knock-in, single cell clone)
# protocol.text: HiBiT cellular degradation assay in SU-DHL-4 cells
# Type: cell-based
# condition.details: concentration to reach 50% degradation of endogenous SmBiT-tagged BCL6; SU-DHL-4 cells; 24 hours of compound treatment
property.label: DC50 (nM)

1. C[C@@H]1CN(c2ncc(Cl)c(Nc3ccc4c(c3)n(CCC(C)(C)O)c(=O)n4C)n2)C[C@H](N)C1(F)F [Compound 1] ... 20
2. CNC(=O)COc1cc2cc(Nc3nc(N4C[C@@H](C)C(F)(F)[C@@H](C)C4)ncc3Cl)ccc2n(C)c1=O [Cmp A] ... 5
3. C[C@@H]1CN(c2ncc(Cl)c(Nc3ccc4c(c3)n(CCC(C)(C)O)c(=O)n4C)n2)C[C@H](CN)C1(F)F (single isomer, unassigned) [Compound 2a] ... 105
4. CNC(=O)COc1cc2cc(Nc3nc(N4C[C@H](C)C[C@H](C)C4)ncc3Cl)ccc2n(C)c1=O [BI-3802] ... 5
5. CNC(=O)COc1cc2cc(Nc3nc(N4C[C@H](CCN)C(F)(F)[C@H](C)C4)ncc3Cl)ccc2n(C)c1=O (single isomer, unassigned) [Compound 51a] ... 2
